tested on: MS2 coat protein; assay: apparent Kd, MS2 coat protein; higher = weaker binding; RNA-MaP array; theophylline 2 mM where present; conditions: ligand present: theophylline; designed as: ON switch for theophylline
measured-metric: apparent Kd (nM)
Reply with just the number (in nM).

Worked set:
[[record]]
macromolecule_sequence = "CAUAAUUUAUCCUAUAAAACUAUUAGUGAUACCAGCACCUCAUGAUGCCCUUGGCAGCACUUACAUGAGGAUCACCCAUGUUUUA"
unit_tag = "nM"
recorded_measurement = 214

[[record]]
macromolecule_sequence = "GCACCAGGUACGGAUACCAGCUAUAGGCCCAAUGGGCGACAUGAGGAUCACCCAUGUGAUGGCCCUUGGCAGCUGUACCUGGUGC"
unit_tag = "nM"
recorded_measurement = 24.1

[[record]]
macromolecule_sequence = "CCUCAUGUGUAUCACCACAUGAGUGGUGAUACCAGCAUCGAAAGAUGCCCUUGGCAGCACCAACAUGAGGAUCACCCAUGUAAUA"
unit_tag = "nM"
recorded_measurement = 101


Data point: "UGUAUGUGAUUUGAUACCAGACCAGCUGGUGGUACAUGAGGAUCACCCAUGUAGGUUUGGGUCCCUUGGCAGCAAAUCGCAUACU" ; apparent Kd = 30

Data point: "UUAAUGGAGCUUUUAUUUACGAUUUCUGAUACCAGUGUUUCAUUUCACCCUUGGCAGCAGUGACAUGAGGAUCACCCAUGUAAUA" ; apparent Kd = 22.8

Data point: "CUCGAGGCCGGUGAUACCAGACACGAAACUAUACAUGAGGAUCACCCAUGUCAAACAACGGUCCCUUGGCAGCAUGGGUGUAUCC" ; apparent Kd = 64.5
